test system: PKN1; details: concentration: 1 μM, replicates: in singlicate; n = 1;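 note: KINOMEscan kinase panel screen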
quantity: %Inh
Please make sure the unit comes right after the number.

Kindly note the recorded %Inh for Cc1nnc(-c2ccc3ncc(-c4ccc(S(C)=O)cc4)n3c2)o1 (stereo not drawn) , which is 0%

In plain terms, Cc1c2ccc(N(C)c3ccnc(Nc4cccc(S(N)(=O)=O)c4)n3)cc2nn1Cc1ccccc1.Cl.Cl [GW787226] has a documented %Inh of 0%

Notebook: CNc1ncnc2[nH]ncc12 [SKF-18355] , %Inh read as 0%

Please fill in: %Inh reported for O=C(Nc1cccc(-c2nn3ncccc3c2-c2ccnc(Nc3cccc(C(F)(F)F)c3)n2)c1)c1c(F)cccc1F [GSK299495] = 0%

The compound COc1ccc(CNC(=O)NC2CCN(c3ccnc(Nc4ccc(OC)cc4)n3)C2)cc1 (stereo not drawn) [GSK1379727] showed %Inh equal to 0%

Lab note: measured %Inh of Cc1ccc(NC(=O)c2ccnc(N3CCN(C)CC3)c2)cc1-c1ccc(C(=O)NCC2CC2)cc1 [GW775604] was 0%

Per the records, this compound ( COc1ccc(Nc2ncc(C#N)c(Nc3ccccc3C(N)=O)n2)cc1N1CCN(C)CC1.Cl [GSK1558669] ) has %Inh equal to 83%

Notebook: N#Cc1ccc(-c2cc(-c3c[nH]nc3-c3ccccn3)ccn2)cc1 [GW693028] , %Inh read as 0%

Value of measured %Inh for the entry "COc1cc2c(cc1OCCN1CCN(C)CC1)ncc1c3ccc(C#N)cc3[nH]c21" : 56%

###

test system: DMPK; settings: concentration: 1 μM, replicates: in singlicate; n = 1
We use 1% as the dividing line for %Inh: on or above the line is Fulfilled, below is Not fulfilled.

Exercise: State whether the measured %Inh reaches 1%, counting equality as reaching it, for "CSc1ccc(-c2cc3ncnc(SCC(=O)O)c3s2)cc1"
Solution: Not fulfilled

Exercise: State whether the measured %Inh reaches 1%, counting equality as reaching it, for COc1ccc(COc2cc(-n3cnc4ccccc43)sc2C(N)=O)cc1 [GSK1024304]
Solution: Fulfilled

Exercise: Quick check: does NCC(NC(=O)c1cc(-c2cn[nH]c2)c(-c2ccnc3[nH]ccc23)s1)c1ccccc1.O=C(O)C(F)(F)F.O=C(O)C(F)(F)F (stereo not drawn) [GSK1325775] have %Inh greater than or equal to 1%?
Solution: Fulfilled

Exercise: Please check the record Cn1cc(-c2ccc3c(c2)CCN3C(=O)Cc2ccccc2Cl)c2c(N)ncnc21 [GSK2608885] and state if its %Inh is at or above 1%.
Solution: Not fulfilled

Exercise: API: above_or_equal(metric=%Inh, cutoff=1%) for item Cc1cccc(Cn2ccn3c(=O)cc(N4CCOCC4)nc23)c1 [GSK2297542]
Solution: Fulfilled

Exercise: Evaluate "N#Cc1c(N2CCOCC2)sc(-c2ccn[nH]2)c1-c1ccc(Cl)cc1" : %Inh at minimum 1%?
Solution: Fulfilled

Exercise: Please indicate if the recorded %Inh for Cc1nnc(-c2ccc(C)c(-c3ccc(C(=O)Nc4ccc(NS(C)(=O)=O)cc4)cc3)c2)o1 [GW702865] meets or exceeds 1%.
Solution: Not fulfilled

Exercise: Has "CN1c2ccc(NCc3ccc(F)cc3)cc2-c2c(cnn2C)S1(=O)=O" a recorded %Inh greater than or equal to 1%?
Solution: Not fulfilled

###

test system: ROCK2; settings: concentration: 1 μM, replicates: in singlicate; n = 1
Give measured %Inh for each item. Keep answers brief.
Reply with just the number (in %).

# %Inh (compound: "CCc1nc(-c2cccc(C)c2)c(-c2ccnc(NCc3ccccc3)c2)s1" ) is 0

The compound identified as "Nc1nc(-c2ccc3c(N)n[nH]c3c2)cc(N2CCCC2)n1" registered its %Inh at 0

Briefly, %Inh measured for "N#Cc1ccc(-c2cc(-c3c[nH]nc3-c3ccccn3)ccn2)cc1" : 3

Lab note: "NS(=O)(=O)c1cccc(-c2ccc3nccc(-c4cccc(S(N)(=O)=O)c4)c3c2)c1" gave %Inh of 37

Noted for "N#Cc1c(N2CCOCC2)sc(-c2ccn[nH]2)c1-c1ccc(Cl)cc1" : its %Inh reads 0

%Inh for "CC(=O)Nc1ccc(COc2ccc(Nc3ccnc4cc(-c5ccccn5)ccc34)cc2)cc1.Cl" is 7

So, "Fc1ccc(-c2ncn(CCCN3CCOCC3)c2-c2cccnc2)cc1" ? Its %Inh was 6

// sample "COc1ccc(Nc2ncc(C#N)c(Nc3ccccc3C(N)=O)n2)cc1N1CCN(C)CC1.Cl" , its %Inh was 91.2

Query COc1ccc(Nc2nccc(N3CCC(NC(=O)Nc4cccc(C(C)=O)c4)C3)n2)cc1 (stereo not drawn) yields %Inh of 0

###

tested on: CSNK1A1; conditions: concentration: 1 μM, replicates: in singlicate; n = 1
Kindly supply the reported %Inh values for the records listed here.
Just the number please, in %, no unit attached.

Case "Fc1ccc(-c2ncn(CCCN3CCOCC3)c2-c2ccccn2)cc1" , CSNK1A1, %Inh recorded as 36

"N#Cc1ccc(-c2cc(-c3c[nH]nc3-c3ccccn3)ccn2)cc1" on CSNK1A1 gives %Inh = 19

Entry "Cn1ccc2ncnc(Oc3ccc(NC(=O)Nc4ccncc4)c(Cl)c3)c21" , tested on CSNK1A1, has a reported %Inh of 0

For the compound "O=C(NCCNc1ccnc(Nc2ccc(F)cc2)n1)Nc1ccccc1F" , the measured %Inh on CSNK1A1 was 0

# COc1cc(Nc2nccc(N3CCC(NC(=O)c4cccc(NC(C)=O)c4)C3)n2)cc(OC)c1OC (stereo not drawn) with CSNK1A1: %Inh is 6

Lab note: compound "Cn1cc(-c2ccc3c(c2)CCN3C(=O)Cc2ccccc2Cl)c2c(N)ncnc21" tested on CSNK1A1; recorded %Inh was 0

# "c1ccc(-c2cc(-c3c[nH]nc3-c3ccccn3)ccn2)cc1" with CSNK1A1: %Inh is 0

Given the compound "O=c1cc(N2CCOCC2)nc2n(Cc3cccc(F)c3)ccn12" and test system CSNK1A1, the measured %Inh is 20

GET /values?item= "Nc1nc(-c2ccc3c(N)n[nH]c3c2)cc(N2CCCC2)n1" &system= CSNK1A1 returns %Inh: 0

###

system: LIMK2; conditions: concentration: 1 μM, replicates: in singlicate; n = 1
Record form. Attribute: %Inh. Fill in for each entry.
Use % as the unit, but write only the number.

Let me check: "CSc1ccc(-c2cc3ncnc(SCC(=O)O)c3s2)cc1" , system LIMK2, measured %Inh is 0

Considering CC(C)(C)n1cnc2c(N)ncnc21 [SKF-97359] , its %Inh with LIMK2 was recorded as 0

Record O=C(NCCCN1CCOCC1)c1cccc(Nc2nccc(Nc3ccc(Oc4ccccc4)cc3)n2)c1 [GW663929] / LIMK2, %Inh recorded as 22

Measured on LIMK2, "CN1c2ccc(CNc3ccc(F)cc3)cc2-c2c(cnn2C)S1(=O)=O" has a documented %Inh of 0

// compound CC(=O)Nc1ccc(COc2ccc(Nc3ccnc4cc(-c5ccccn5)ccc34)cc2)cc1.Cl [GW440148] , assay LIMK2, %Inh value: 0

###

test system: MYO3A; details: concentration: 1 μM, replicates: in singlicate; n = 1
// classify: if (%Inh < 4%) class 1 else class 0

Exercise: Hello, is %Inh of the following compound strictly smaller than 4%? Cc1c2ccc(N(C)c3ccnc(Nc4cccc(S(N)(=O)=O)c4)n3)cc2nn1Cc1ccccc1.Cl.Cl [GW787226]
Solution: class 1

Exercise: Check if %Inh falls below 4% for "Cc1ccc(C(=O)NCC(N)=O)cc1-n1c(C)cc(OCc2ccc(F)cc2F)c(Br)c1=O" .
Solution: class 0

Exercise: # TODO verify %Inh < 4% strictly for this compound: Nc1nc(-c2ccc3c(N)n[nH]c3c2)cc(N2CCCC2)n1 [GSK2227430]
Solution: class 1

Exercise: Field: below-cutoff. Rule: recorded %Inh strictly less than 4%. Subject: N#Cc1ccc(-c2cc(-c3c[nH]nc3-c3ccccn3)ccn2)cc1 [GW693028]
Solution: class 0

Exercise: Could you please tell me whether %Inh recorded for Cc1ccc(NC(=O)c2ccnc(N3CCN(C)CC3)c2)cc1-c1ccc(C(=O)NCC2CC2)cc1 [GW775604] is less than 4%?
Solution: class 1

Exercise: State whether 4% exceeds %Inh recorded for O=c1cc(N2CCOCC2)nc2n(Cc3cccc(F)c3)ccn12 [GSK2297430] .
Solution: class 1

Exercise: Could you please tell me whether %Inh recorded for CC(C)(C)n1cnc2c(N)ncnc21 [SKF-97359] is less than 4%?
Solution: class 1

Exercise: Is the reported %Inh for CC(C)Oc1ccc2c(-c3ccnc(Nc4ccc(N5CCN(C)CC5)cc4)n3)cnn2n1 [GW696155] strictly below 4%?
Solution: class 0

###

system: ADCK3; construct: gene CABC1; settings: concentration: 1 μM, replicates: in singlicate; n = 1
quantity: %Inh (%)
Write the answer as a number in %, unit excluded.

// recorded %Inh for O=c1cc(N2CCOCC2)nc2n(Cc3cccc4ccccc34)ccn12 [GSK2333389] : 6

Entry Nc1nc(-c2ccc3c(N)n[nH]c3c2)cc(N2CCCC2)n1 [GSK2227430] — recorded %Inh = 0

Recorded %Inh (molecule CNc1ncnc2[nH]ncc12 [SKF-18355] ): 0

// %Inh lookup, molecule = c1ccc(-c2n[nH]cc2-c2ccnc3ccccc23)nc1 [GW271431] , result: 20

// recorded %Inh for Cl.Nc1ncnc2occ(-c3ccc(NC(=O)Nc4cc(C(F)(F)F)ccc4F)cc3)c12 [SB-707548] : 10

Recorded result, O=C(c1ccc(-c2cc(-c3c[nH]nc3-c3ccccn3)ccn2)cc1)N1CCOCC1 [GW812171] , %Inh: 0

What the record says about Cn1cc(-c2ccc3c(c2)CCN3C(=O)Cc2ccccc2Cl)c2c(N)ncnc21 [GSK2608885] : %Inh is 1

Reported %Inh for O=c1cc(N2CCOCC2)nc2n(Cc3cccc(F)c3)ccn12 [GSK2297430] was 9

// field: %Inh; key: Fc1ccc(-c2ncn(CCCN3CCOCC3)c2-c2ccccn2)cc1 [SB-211742] ; value = 3
